Reported kon is given for each of the following binders.
TARGET_SYSTEM: human IL-6 (human, UniProt P05231 30-212)
Sequence (P05231 30-212 limits assumed): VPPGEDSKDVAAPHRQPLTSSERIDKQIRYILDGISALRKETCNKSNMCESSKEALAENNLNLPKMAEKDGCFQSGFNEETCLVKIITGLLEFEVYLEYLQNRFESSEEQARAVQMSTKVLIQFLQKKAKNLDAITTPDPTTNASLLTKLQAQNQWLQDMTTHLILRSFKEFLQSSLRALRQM
METHOD_DESCRIPTION: SPR (Biacore), supernatant antibody on Protein A chip, IL-6 flowed, 37 C
Answer with the value and then the unit.

Ask: Can you share its kon? I mean this binder: anti-IL-6 antibody, heavy chain I51H, G66D / light chain M32L, M50D, N52S, M88Q (antibody, human IgG1, V domains shown, Human IgG1) VH: EVQLVESGGGLVQPGGSLRLSCAASGFTFSPFAMSWVRQAPGKGLEWVAKHSPGGSWTYYSDTVTDRFTFSLDTSKSTAYLQMNSLRAEDTAVYYCARQLWGYYALDIWGQGTLVTVSS VL: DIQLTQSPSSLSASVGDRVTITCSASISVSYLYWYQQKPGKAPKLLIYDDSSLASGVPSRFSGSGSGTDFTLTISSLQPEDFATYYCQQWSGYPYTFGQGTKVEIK
Result: 2.07e+06 M⁻¹ s⁻¹

Ask: Can you share its kon? I mean this binder: anti-IL-6 antibody, heavy chain T63G, G66D / light chain M32L, M50D, N52S, M88Q (antibody, human IgG1, V domains shown, Human IgG1) VH: EVQLVESGGGLVQPGGSLRLSCAASGFTFSPFAMSWVRQAPGKGLEWVAKISPGGSWTYYSDGVTDRFTFSLDTSKSTAYLQMNSLRAEDTAVYYCARQLWGYYALDIWGQGTLVTVSS VL: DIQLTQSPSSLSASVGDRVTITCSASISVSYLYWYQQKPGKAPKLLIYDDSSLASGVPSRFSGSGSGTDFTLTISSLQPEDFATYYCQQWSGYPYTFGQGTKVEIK
Result: 1.73e+06 M⁻¹ s⁻¹
